Recorded IC50 for the following molecules
- Tested on: Vps34 enzyme (Homo sapiens (Human))
- Sequence (Q8NEB9 whole entry): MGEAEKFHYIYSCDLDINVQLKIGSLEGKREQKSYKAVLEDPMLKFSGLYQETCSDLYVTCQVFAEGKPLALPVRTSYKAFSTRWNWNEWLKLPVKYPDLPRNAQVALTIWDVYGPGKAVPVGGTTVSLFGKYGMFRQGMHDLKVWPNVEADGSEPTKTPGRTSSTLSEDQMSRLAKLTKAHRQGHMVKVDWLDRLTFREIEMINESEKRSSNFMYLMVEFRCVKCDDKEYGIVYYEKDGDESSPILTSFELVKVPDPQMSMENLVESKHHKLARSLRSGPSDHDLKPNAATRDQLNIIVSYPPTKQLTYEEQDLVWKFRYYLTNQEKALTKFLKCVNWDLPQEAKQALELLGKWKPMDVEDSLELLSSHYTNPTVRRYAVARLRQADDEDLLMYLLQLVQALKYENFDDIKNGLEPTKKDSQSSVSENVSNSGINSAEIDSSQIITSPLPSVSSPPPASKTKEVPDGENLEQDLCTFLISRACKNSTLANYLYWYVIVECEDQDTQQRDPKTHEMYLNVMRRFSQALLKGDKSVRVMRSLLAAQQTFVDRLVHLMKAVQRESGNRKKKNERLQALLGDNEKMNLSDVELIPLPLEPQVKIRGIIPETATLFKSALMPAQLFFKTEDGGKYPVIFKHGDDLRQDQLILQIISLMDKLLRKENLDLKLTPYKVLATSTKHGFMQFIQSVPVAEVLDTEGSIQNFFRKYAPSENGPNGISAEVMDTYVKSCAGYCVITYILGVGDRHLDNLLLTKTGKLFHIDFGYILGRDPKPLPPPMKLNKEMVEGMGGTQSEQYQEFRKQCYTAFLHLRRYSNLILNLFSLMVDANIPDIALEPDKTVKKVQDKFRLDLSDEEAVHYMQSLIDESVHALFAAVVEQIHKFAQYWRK
- Protocol details: Vps34 Biochemical Assay (Adapta TR-FRET)
- Run parameters: 20 μM ATP and 200 μM PI:PS in substrate mix, 1 h at room temperature, read-out: Median IC50 μM Adapta
Numbers only here, please. The scale is µM.

> print(dat)
                                   molecule  value.type  measured.result
1  C[C@@H]1COCCN1c1cc(-c2ccc(-c3ccn[nH]3)cc2)[nH]c(=O)c1 [Example 17]        IC50              0.2
2  C[C@@H]1COCCN1c1cc(-c2ccccc2Cl)[nH]c(=O)c1 [Example 11]        IC50            0.007
3  C[C@@H]1COCCN1c1cc(-c2cccnc2C(F)(F)F)[nH]c(=O)c1 [Example 10]        IC50             0.02

Looking for the measured IC50 of Cc1cscc1-c1cc(N2CCOC[C@H]2C)cc(=O)[nH]1 [Example 14] , can you help?
0.03

Looking for the measured IC50 of O=c1cc(N2CCOCC2)cc(-c2ccccc2Cl)[nH]1 [Example 1] , can you help?
0.03

###

Recorded IC50 for the following compounds
- Tested on: Vps34 enzyme (Homo sapiens (Human))
- Protocol details: Vps34 Biochemical Assay (Adapta TR-FRET)
- Run parameters: 20 μM ATP and 200 μM PI:PS in substrate mix, 1 h at room temperature, read-out: Median IC50 μM Adapta
Numbers only here, please. The scale is µM.

Consider the reported IC50 for these compounds:
> print(dat)
                                    compound  value.type  measured.result
 1  CC1COCCN1c1cc(-c2cncnc2)[nH]c(=O)c1 (stereo not drawn)        IC50                1
 2   C[C@@H]1COCCN1c1cc(-c2ccoc2)[nH]c(=O)c1        IC50              0.2
 3  C[C@@H]1COCCN1c1cc(-c2ccccc2NS(C)(=O)=O)[nH]c(=O)c1        IC50              0.2
 4  CC1COCCN1c1cc(-c2ccccc2-c2ccccc2)[nH]c(=O)c1 (stereo not drawn)        IC50             0.06
 5  CC1COCCN1c1cc(-c2ccccc2Cl)[nH]c(=O)c1 (stereo not drawn)        IC50             0.01
 6  Cc1ccncc1-c1cc(N2CCOCC2C)cc(=O)[nH]1 (stereo not drawn)        IC50              0.1
 7  CC1COCCN1c1cc(-c2ccccc2Cl)n(C)c(=O)c1 (stereo not drawn)        IC50             0.02
 8  C[C@@H]1COCCN1c1cc(-c2cc(F)ccc2Cl)[nH]c(=O)c1        IC50             0.01
 9  Cc1ccccc1-c1cc(N2CCOC[C@H]2C)cc(=O)[nH]1        IC50             0.03
10  C[C@@H]1COCCN1c1cc(-c2ccccc2C(F)(F)F)[nH]c(=O)c1        IC50            0.007

Looking for the measured IC50 of "Cn1c(-c2ccccc2Cl)cc(N2CCOCC2)cc1=O" , can you help?
0.05

Looking for the measured IC50 of "Cc1ccc2ncccc2c1-c1cc(N2CCOC[C@H]2C)cc(=O)[nH]1" , can you help?
0.2
